B1: Protein piccolo, residues 1058 to 1114; numbered along this chain, Q9Y6V0 (parent)
chain: TCPLCKTELNIGSKDPPNFNTCTECKNQVCNLCGFNPTPHLTEIQEWLCLNCQTQRA

Variants of: B1
EXPERIMENT_NOTES: abundance fitness (aPCA) (normalised: wild type 0, dead -1); higher = more abundant; growth selection in yeast, the domain comes from the species named
STATED_CONDITIONS: Homo sapiens
Would you mind telling me the reported abundance fitness of each entry?

Record excerpt, results attached:
E24K	-0.017
P39N	-0.214
Q28T	-0.015
Q45M	-0.015
P17M	-0.491
T1A	-0.534

Could I get abundance fitness for every one of these entries?
1. K6Y
2. C52Q
3. C5R
4. L48D
5. L9S
6. K26D
7. N31L
8. P3A

1: -0.18; 2: -0.841; 3: -0.906; 4: -0.297; 5: -0.042; 6: 0.071; 7: 0.072; 8: -0.245

Could I get abundance fitness for every one of these entries?
1. Q53I
2. N20S

1. -0.25
2. -0.082

Could I get abundance fitness for every one of these entries?
1. N36S
2. S13D
3. T54Y
4. C5P
5. Q45D
6. G34T

1: -0.12; 2: -0.463; 3: -0.369; 4: -1.01; 5: -0.254; 6: -1.02

Data origin: the Human Domainome abundance scans (Beltran et al. 2025)
